Origin of measurements: ChEMBL document CHEMBL1909294

What follows is a record of HepSE_bilirubinemia for Hepatotoxicity.
Numbers only.

Report HepSE_bilirubinemia for every entry below.
1. FC(F)OC(F)(F)C(F)Cl (stereo unspecified)
2. C1N2CN3CN1CN(C2)C3
3. O=C1CN(/N=C/c2ccc(-c3ccc([N+](=O)[O-])cc3)o2)C(O)=N1
4. Cc1cn([C@H]2C[C@H](O)[C@@H](CO)O2)c(=O)[nH]c1=O

1: 0; 2: 0; 3: 0; 4: 0

###

System: Hepatotoxicity
assayEndpoint: HepSE_bilirubinemia

// known answers, use as guide
>  <compound>
CO/N=C1\CN(c2nc3c(cc2F)c(=O)c(C(=O)O)cn3C2CC2)CC1CN (centres undefined)

>  <HepSE_bilirubinemia>
1

$$$$
>  <compound>
CN1CCC[C@@H]1CCO[C@](C)(c1ccccc1)c1ccc(Cl)cc1

>  <HepSE_bilirubinemia>
0

$$$$
>  <compound>
CC(=O)O.NCc1ccc(S(N)(=O)=O)cc1 [MAFENIDE ACETATE]

>  <HepSE_bilirubinemia>
0

$$$$
>  <compound>
O=C(NCC(O)CO)c1c(I)c(C(=O)NCC(O)CO)c(I)c(N(CCO)C(=O)CO)c1I (centres undefined)

>  <HepSE_bilirubinemia>
0

$$$$
>  <compound>
O=S(=O)([O-])CCS.[Na+]

>  <HepSE_bilirubinemia>
0

$$$$
>  <compound>
Cc1ccccc1C(OCCN(C)C)c1ccccc1 (centres undefined)

>  <HepSE_bilirubinemia>
0

$$$$
>  <compound>
CCCCCCCC(=O)CC[C@@H]1[C@@H](C/C=C\CCCC(=O)O)[C@@H](O)C[C@H]1O

>  <HepSE_bilirubinemia>
0

$$$$
>  <compound>
C=C(c1ccc(C(=O)O)cc1)c1cc2c(cc1C)C(C)(C)CCC2(C)C

>  <HepSE_bilirubinemia>
1

$$$$

Continue with the compound presented below.
// fetch Hepatotoxicity HepSE_bilirubinemia for N[C@@H]1CON=C1O 0

###

What follows is a record of HepSE_hepatitis for Hepatotoxicity.
Give bare numbers.

Report HepSE_hepatitis for every entry below.
1. CCOC(=O)[C@H](CCc1ccccc1)N[C@@H](C)C(=O)N1CCC[C@H]1C(=O)O
2. C=C1[C@H](CO)[C@@H](O)C[C@@H]1n1cnc2c(=O)[nH]c(N)nc21.O
3. CC(=O)N[C@@H](CS)C(=O)O

1: 1; 2: 1; 3: 0

Report HepSE_hepatitis for every entry below.
1. O=C(O)c1cc(=O)c2c(OCC(O)COc3cccc4oc(C(=O)O)cc(=O)c34)cccc2o1
2. CC(=O)N(O)CCCCCNC(=O)CCC(=O)N(O)CCCCCNC(=O)CCC(=O)N(O)CCCCCN
3. CC[C@@H](CO)NCCN[C@@H](CC)CO
4. CC(=O)[C@]1(O)Cc2c(O)c3c(c(O)c2[C@@H](O[C@H]2C[C@H](N)[C@H](O)[C@H](C)O2)C1)C(=O)c1ccccc1C3=O
5. C[C@H](Cn1cnc2c(N)ncnc21)OCP(=O)(O)O [TENOFOVIR ANHYDROUS]
6. CN(C)/N=N/c1[nH]cnc1C(N)=O

[0, 0, 1, 0, 1, 0]

Report HepSE_hepatitis for every entry below.
1. CCCN(CCC)S(=O)(=O)c1ccc(C(=O)O)cc1
2. CN(C)C(=O)Oc1ccc[n+](C)c1
3. Nc1nc2c(ncn2COCCO)c(=O)[nH]1
4. CC(=O)Oc1ccccc1C(=O)O
5. FC(F)(F)C(Cl)Br (stereo unspecified)

[0, 0, 1, 0, 0]

Report HepSE_hepatitis for every entry below.
1. COC(=O)C1=C(C)NC(C)=C(C(=O)OC(C)C)C1c1cccc2nonc12 (stereo unspecified)
2. CN1CCC(=C2c3ccccc3CC(=O)c3sccc32)CC1
3. CCCSc1ccc2nc(NC(=O)OC)[nH]c2c1
4. Cc1cn[nH]c1 [FOMEPIZOLE]
5. CN(N=O)C(=O)N[C@@H](C=O)[C@@H](O)[C@H](O)[C@H](O)CO
6. CCN(CC)CCOC(=O)c1ccc(N)cc1
7. [Cl-].[Na+] [SODIUM CHLORIDE]

[0, 1, 1, 0, 0, 0, 0]

###

What follows is a record of HepSE_hepatitis for Hepatotoxicity.

>  <molecule>
C=C1C[C@@H]2[C@H](CC[C@]3(C)C(=O)CC[C@@H]23)[C@@]2(C)C=CC(=O)C=C12

>  <HepSE_hepatitis>
1

$$$$
>  <molecule>
CC(C)Nc1cccnc1N1CCN(C(=O)c2cc3cc(NS(C)(=O)=O)ccc3[nH]2)CC1

>  <HepSE_hepatitis>
1

$$$$
>  <molecule>
NC(=O)c1ncn([C@@H]2O[C@H](CO)[C@@H](O)[C@H]2O)n1

>  <HepSE_hepatitis>
0

$$$$

Report HepSE_hepatitis for every entry below.
1. CO[C@]12CC[C@@]3(C[C@@H]1[C@](C)(O)C(C)(C)C)[C@H]1Cc4ccc(O)c5c4[C@@]3(CCN1CC1CC1)[C@H]2O5
2. CN(C)[C@@H]1C(O)=C(C(N)=O)C(=O)[C@@]2(O)C(O)=C3C(=O)c4c(O)cccc4[C@@](C)(O)[C@H]3C[C@@H]12
3. CCC1=C(C)CN(C(=O)NCCc2ccc(S(=O)(=O)NC(=O)N[C@H]3CC[C@H](C)CC3)cc2)C1=O [GLIMEPIRIDE]
4. Cc1ccc(-c2nc3ccc(C)cn3c2CC(=O)N(C)C)cc1
5. O=C(O[C@@H]1C[C@@H]2C[C@H]3C[C@H](C1)N2CC3=O)c1c[nH]c2ccccc12
6. O.O=P(O)(O)C(O)(Cn1ccnc1)P(=O)(O)O

[0, 0, 1, 0, 0, 0]

Report HepSE_hepatitis for every entry below.
1. COc1ccccc1OCC(O)CN1CCN(CC(=O)Nc2c(C)cccc2C)CC1 (configuration not stated)
2. N[C@@H](Cc1c[nH]c2ccccc12)C(=O)O
3. CCCCC(C)(O)C/C=C/[C@H]1[C@H](O)CC(=O)[C@@H]1CCCCCCC(=O)OC (some centres not stated)
4. Nc1ccn([C@@H]2O[C@H](CO)[C@@H](O)C2(F)F)c(=O)n1
5. O=C(c1ccc(OCCN2CCCCC2)cc1)c1c(-c2ccc(O)cc2)sc2cc(O)ccc12
6. II
7. C[C@]12CC[C@H]3[C@@H](CCC4=CC(=O)CC[C@@H]43)[C@@H]1CC[C@@H]2O

0
0
0
0
0
1
0

Can you look up the measured HepSE_hepatitis of COc1ccc(C[C@@H]2c3cc(OC)c(OC)cc3CC[N@+]2(C)CCC(=O)OCCCCCOC(=O)CC[N@@+]2(C)CCc3cc(OC)c(OC)cc3[C@H]2Cc2ccc(OC)c(OC)c2)cc1OC for me? 0

###

What follows is a record of HepSE_liver function tests abnormal for Hepatotoxicity.
Give bare numbers.

// known answers, use as guide
>  <compound>
CN(C/C=C/C#CC(C)(C)C)Cc1cccc2ccccc12

>  <HepSE_liver function tests abnormal>
0

$$$$
>  <compound>
O=C(O)CCCCCCCC(=O)O

>  <HepSE_liver function tests abnormal>
0

$$$$
>  <compound>
CCCc1c2oc(C(=O)[O-])cc(=O)c2cc2c(=O)cc(C(=O)[O-])n(CC)c12.[Na+].[Na+] [NEDOCROMIL SODIUM]

>  <HepSE_liver function tests abnormal>
0

$$$$

Report HepSE_liver function tests abnormal for every entry below.
1. Cc1cccc(C)c1NC(=O)C1CCCCN1C (stereo not drawn) [MEPIVACAINE]
2. CNS(=O)(=O)Cc1ccc2[nH]cc(CCN(C)C)c2c1
3. CO[C@H]1/C=C/O[C@@]2(C)Oc3c(C)c(O)c4c(O)c(c(/C=N/N5CCN(C)CC5)c(O)c4c3C2=O)NC(=O)/C(C)=C\C=C\[C@H](C)[C@H](O)[C@@H](C)[C@@H](O)[C@@H](C)[C@H](OC(C)=O)[C@@H]1C
4. C[C@@H](O)C(=O)O
5. C[N+]1(C)[C@@H]2C[C@@H](OC(=O)C(O)(c3cccs3)c3cccs3)C[C@H]1[C@@H]1O[C@@H]12

0
1
1
0
0

###

What follows is a record of HepSE_hepatitis for Hepatotoxicity.

>  <molecule>
Clc1ccccc1C(c1ccccc1)(c1ccccc1)n1ccnc1 [CLOTRIMAZOLE]

>  <HepSE_hepatitis>
0

$$$$
>  <molecule>
C=CCN1CC[C@]23c4c5ccc(O)c4O[C@H]2C(=O)CC[C@@]3(O)[C@H]1C5 [NALOXONE]

>  <HepSE_hepatitis>
0

$$$$
>  <molecule>
Cn1c(=O)c2[nH]cnc2n(C)c1=O.Cn1c(=O)c2[nH]cnc2n(C)c1=O.NCCN [AMINOPHYLLINE]

>  <HepSE_hepatitis>
0

$$$$
>  <molecule>
CC(C)CN(C[C@@H](O)[C@H](Cc1ccccc1)NC(=O)O[C@H]1CCOC1)S(=O)(=O)c1ccc(N)cc1

>  <HepSE_hepatitis>
0

$$$$
>  <molecule>
O=C1[C@H](CC[C@H](O)c2ccc(F)cc2)[C@@H](c2ccc(O)cc2)N1c1ccc(F)cc1 [EZETIMIBE]

>  <HepSE_hepatitis>
1

$$$$

Report HepSE_hepatitis for every entry below.
1. O=S(=O)([O-])CCS.[Na+] [MESNA]
2. CN1CCN2c3ncccc3Cc3ccccc3C2C1 (stereo not given) [MIRTAZAPINE]
3. CN1CC(=O)N2[C@H](c3ccc4c(c3)OCO4)c3[nH]c4ccccc4c3C[C@@H]2C1=O
4. C=CC1=C(C(=O)O)N2C(=O)[C@@H](NC(=O)/C(=N\OCC(=O)O)c3csc(N)n3)[C@H]2SC1 [CEFIXIME]
5. NCC(CC(=O)O)c1ccc(Cl)cc1 (stereo not given) [BACLOFEN]
6. CC1(C)S[C@@H]2[C@H](NC(=O)C(C(=O)Oc3ccc4c(c3)CCC4)c3ccccc3)C(=O)N2[C@H]1C(=O)[O-].[Na+] (stereo not given in full) [CARBENICILLIN INDANYL SODIUM]
7. CN1CCN(C2=Nc3cc(Cl)ccc3Nc3ccccc32)CC1 [CLOZAPINE]

1: 0; 2: 0; 3: 0; 4: 1; 5: 0; 6: 0; 7: 1
